Biological target: T1, HPV 16 E7 peptide on HLA-A*02:01 (human)
T1 peptide: YMLDLQPET
Experiment: multimer staining

BINDER	binding result
TCR 61 (TCR, V domains shown) Valpha: QKEVEQNSGPLSVPEGAIASLNCTYSDRGSQSFFWYRQYSGKSPELIMFIYSNGDKEDGRFTAQLNKASQYVSLLIRDSQPSDSATYLCAVNIENNNARLMFGDGTQLVVKP Vbeta: EPEVTQTPSHQVTQMGQEVILRCVPISNHLYFYWYRQILGQKVEFLVSFYNNEISEKSEIFDDQFSVERPDGSNFTLKIRSTKLEDSAMYFCASTKRFSYEQYFGPGTRLTVT	recognises
TCR 57 (TCR, V domains shown) Valpha: TQLLEQSPQFLSIQEGENLTVYCNSSSVFSSLQWYRQEPGEGPVLLVTVVTGGEVKKLKRLTFQFGDARKDSSLHITAAQPGDTGLYLCAGARNFNKFYFGSGTKLNVKP Vbeta: GAVVSQHPSWVICKSGTSVKIECRSLDFQATTMFWYRQFPKQSLMLMATSNEGSKATYEQGVEKDKFLINHASLTLSTLTVTSAHPEDSSFYICSARSWRGGLEQFFGPGTRLTVL	recognises

Source: patent US20190321401A1
